Test: inhibitors of Chlamydomonas gravitaxis, primary screen, whole organism, Chlamydomonas reinhardtii, WT vs cilia-less mutant, absorbance, 96-well (AID 463189);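 also: 0% = wild type cc124 cells in DMSO and 100% = ciliumless bld1 mutant cells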
Conditions: OD600 absorbance, 2 days, at 10 µM, stronger effect = higher value
This section presents molecules with their documented inhibition values.
Numeric answer only, unit % assumed.

Guide cases for inhibition, answers given:
| molecule | inhibition, % |
| --- | --- |
| CCOC(=O)c1c(N)sc(=S)c2c1CCC2 | 15 |
| Cc1ccccc1N1C(=O)C2ON(c3ccccc3)C(c3cccnc3)C2C1=O (stereo unspecified) | -7.8 |
| CCOC(=O)CNS(=O)(=O)c1cc(-c2n[nH]c(=O)c3ccccc23)ccc1C | 2.8 |
| CC(NC(=O)CSc1nc2c(cc1C#N)CN(C)CC2)c1ccccc1 (stereo unspecified) | 11.3 |
| O=C(c1ccccc1)c1cc(-c2ccccc2)on1 | -6.04 |

Now look at this one.
(Q) Output inhibition of "CCC(CC)n1[nH]c(=O)cc1N"
(A) 7.67

----------
Molecular target: Alpha-2C adrenergic receptor (Homo sapiens)
Assay: modulators of alpha2C/GIRK thallium flux, primary screen, cell-based, HEK293 alpha2C/GIRK1/2 (AID 624);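 also: slope of fluorescence ratio to pre-addition baseline per second over 15 to 24 s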
Conditions: thallium flux BTC fluorescence, at 10 µM, actives lie on both sides
Decide using slope alone. Strictly below 0.007: TRUE. Equal to or above 0.007: FALSE.

Observe how each entry below is paired with its result.
| compound | measurement-target | category-label |
| --- | --- | --- |
| COc1ccc(-c2nnc(SCC(=O)Nc3ccc(Cl)cc3)n2C)cc1 | Alpha-2C adrenergic receptor (Homo sapiens) | FALSE |
| CCCc1cc(-n2ccnc2)n2c(nc3ccccc32)c1C#N | Alpha-2C adrenergic receptor (Homo sapiens) | TRUE |
| O=C(COC(=O)c1cc(-c2ccco2)nc2ccccc12)NCc1ccc2c(c1)OCO2 | Alpha-2C adrenergic receptor (Homo sapiens) | TRUE |
| CC1CCC(NC(=O)C2(C)CCC(=O)N2Cc2cccnc2)CC1 (stereo unspecified) | Alpha-2C adrenergic receptor (Homo sapiens) | FALSE |
| CC1CCN(c2oc(-c3ccccc3F)nc2C#N)CC1 | Alpha-2C adrenergic receptor (Homo sapiens) | TRUE |
| CCOC(=O)c1cnn(-c2sc(C(=O)OCC)c(C)c2C(=O)OCC)c1N | Alpha-2C adrenergic receptor (Homo sapiens) | TRUE |
| CC(C)c1ncc(C(O)c2cccc3ccccc23)n1C (stereo unspecified) | Alpha-2C adrenergic receptor (Homo sapiens) | TRUE |
| COCCCNC(=O)c1c(N)n(-c2cccc(S(N)(=O)=O)c2)c2nc3ccccc3nc12 | Alpha-2C adrenergic receptor (Homo sapiens) | TRUE |

Would you kindly look at the next entry?
(Q) I wonder whether "CCS(=O)(=O)N1CCC(C(=O)NCCc2ccc(C)cc2)CC1" has slope below 0.007. Can you tell?
(A) TRUE

----------
Target: Voltage-gated potassium channel subunit beta-2 (Rattus norvegicus) (UniProt P62483)
Sequence (P62483 whole entry, looked up): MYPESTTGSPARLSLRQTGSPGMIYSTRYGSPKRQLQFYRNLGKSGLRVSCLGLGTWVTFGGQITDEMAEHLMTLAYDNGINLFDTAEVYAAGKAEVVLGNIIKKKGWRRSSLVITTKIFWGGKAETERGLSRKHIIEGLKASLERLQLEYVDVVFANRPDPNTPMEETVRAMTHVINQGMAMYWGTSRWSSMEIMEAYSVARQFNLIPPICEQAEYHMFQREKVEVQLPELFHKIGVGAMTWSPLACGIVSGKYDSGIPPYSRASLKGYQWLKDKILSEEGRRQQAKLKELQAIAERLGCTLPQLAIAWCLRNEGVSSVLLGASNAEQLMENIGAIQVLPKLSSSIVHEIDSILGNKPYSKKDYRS
Assay: KvBeta enzyme negative modulators, primary screen, biochemical, NADPH fluorescence (AID 622);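 also: slope of raw intensity against log time taken from 70 to 1610 s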
Details: recombinant KvBeta, 4-cyanobenzaldehyde reduction, at 10 µM
Activity calls are given as the source filed them.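 The calls were made as follows: active = fluorescence slope higher than the sample average by over 3 SD (cut at about -0.22 in these data, passing the limit was not always enough); inactive = the rest.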
# valid calls are active, inactive; nothing else

| compound | measurement-target | category-label |
| --- | --- | --- |
| CCOc1ccc(OCC)c(NC(=O)CCCN2C(=O)c3cccnc3C2=O)c1 | Voltage-gated potassium channel subunit beta-2 (Rattus norvegicus) (UniProt P62483) | inactive |
| CCOCCCNC(=O)C(c1ccc(C)cc1)N(Cc1ccc2c(c1)OCO2)C(=O)c1cnccn1 (stereo not drawn) | Voltage-gated potassium channel subunit beta-2 (Rattus norvegicus) (UniProt P62483) | inactive |
| C=CCOC(=O)COc1ccc2c(C)c(C)c(=O)oc2c1C | Voltage-gated potassium channel subunit beta-2 (Rattus norvegicus) (UniProt P62483) | inactive |

(Q) Please share the test call associated with "CC(C)OCCCNc1ncnc2c1cnn2-c1ccccc1" .
(A) inactive

(Q) Dear colleague, could you share the recorded outcome for Cc1cc(C)n(CC2CC(=O)N(c3ccc(F)c(Cl)c3)C2=O)n1 (stereo not drawn) when you have a moment?
(A) inactive

(Q) Called result for Cc1cccc(-c2nc(CN3CCCC(C(=O)NC4CCCC4)C3)c(C)o2)c1 (stereo not drawn)
(A) inactive

(Q) Hi, sorry to bother you, what did the test record for "CC1=C(C#N)C(=O)OC(C)(C)C1" ?
(A) inactive

(Q) So what was the verdict on CCOc1ccccc1-n1c(SCC(=O)NC(C)CC)nnc1-c1ccoc1C (stereo not drawn) in this test?
(A) inactive

(Q) Dear colleague, could you share the recorded outcome for "O=C(C1CCCCC1)N1CCC(c2nc3c(nnn3Cc3ccccc3Cl)c(=O)[nH]2)CC1" when you have a moment?
(A) inactive

(Q) Which outcome was entered for the compound "Cc1cc(C)c2c(CC(=O)NCc3ccco3)coc2c1" in this test?
(A) inactive

----------
Test: DUSP6 inhibitors restoring Erk phosphorylation by chemical complementation, primary imaging in DUSP6-transfected HeLa (AID 609)
Settings: HeLa MKP-3 transfected, phospho-Erk imaging KS statistic; measured here: cell density z-score; at 10 µM; cells stimulated with TPA for 15 min
Could you label it Yes if measured z-score is -0.002 or higher, and No otherwise?

| molecule | category-label |
| --- | --- |
| COc1cc(S(=O)(=O)N2CCN(C)CC2)c(OC)cc1Br | Yes |

(Q) hey, is z-score for this one >= -0.002? "CCC(NC(=O)Nc1ncccc1C)(C(F)(F)F)C(F)(F)F"
(A) Yes

(Q) State whether the measured z-score reaches -0.002, counting equality as reaching it, for O=C(CC(c1ccco1)S(=O)(=O)c1ccccc1)c1ccc(F)cc1 (centres undefined)
(A) No

(Q) Hi team, for "CCc1c(C)c2cc(Cl)c(O)c(CN3CCCCC3)c2oc1=O" , is the recorded z-score at or above -0.002?
(A) Yes

(Q) z-score >= -0.002 for CCOC(=O)C1=C(C)OC(N)=C(C#N)C1c1cc2ccccc2nc1N1CCCCC1 (centres undefined) ?
(A) No

(Q) Answer whether z-score of "CC(=O)N(Cc1ccccc1)c1ccc(C(=O)O)cc1" is greater than or equal to -0.002.
(A) No

(Q) Is reported z-score greater than or equal to -0.002 here: "Fc1ccc2[nH]c3c(N4CCSCC4)ncnc3c2c1"
(A) No

(Q) Reported z-score reaches at least -0.002 for "CSc1nc2sc3c(c2c2nncn12)CCC3" ?
(A) No

(Q) Would you say "O=C(c1cc(N2CCCCC2)nc2ccccc12)N1CCOCC1" shows z-score at minimum -0.002?
(A) No

(Q) Given the entry COc1cccc(C2/C(=C(\O)c3ccc(OC)c(OC)c3)C(=O)C(=O)N2c2cc(C)on2)c1 (centres undefined) , answer whether its z-score meets or surpasses -0.002.
(A) No

(Q) Can "C=CCNc1nc(N2CCOCC2)c(C#N)c2c1CN(C)CC2" be said to have z-score at or above -0.002?
(A) Yes

(Q) Entry "CN(CCOC(=O)c1ccc2c(c1)OCCO2)Cc1ccccc1" : is its z-score no less than -0.002?
(A) Yes

(Q) // inclusive: z-score at least -0.002? input: CC(=O)N1CCN(C2c3cccc4cccc(c34)C2NS(=O)(=O)c2ccccc2)CC1 (centres undefined)
(A) Yes

----------
Assay: DUSP6 inhibitors restoring Erk phosphorylation by chemical complementation, primary imaging in DUSP6-transfected HeLa (AID 609)
Conditions: HeLa MKP-3 transfected, phospho-Erk imaging KS statistic; measured here: cell density z-score; at 10 µM; cells stimulated with TPA for 15 min
Quick rule: z-score of at least 0.1 means 1 (yes), below that means 0 (no).

| molecule | category-label |
| --- | --- |
| CCOC(=O)Oc1ccc2c(c1)C(C)=CC(C)(C)N2C(=O)OCC | 1 (yes) |

(Q) Evaluate "CC(=O)c1ccc(C#CC(C)(C)O)s1" : z-score at minimum 0.1?
(A) 0 (no)

(Q) Hello, I need to know if CCOC(=O)C1CCN(c2nc3ccccc3nc2C(C#N)C(=O)OC(C)COC)CC1 (stereo unspecified) has measured z-score not below 0.1. Thanks!
(A) 1 (yes)

(Q) Would you say "Cc1ccc(-n2ncc3c(NCc4cccnc4)ncnc32)c(C)c1" shows z-score at minimum 0.1?
(A) 0 (no)

(Q) Form field: z-score at least 0.1? Entry: "N#Cc1nc(COc2ccc(Cl)cc2)oc1N1CCN(Cc2ccccc2)CC1"
(A) 0 (no)

(Q) Could you verify whether the entry C=CCn1c(C2CC(=O)N(c3ccc(C)cc3)C2)nc2ccccc21 (stereo unspecified) shows z-score of no less than 0.1?
(A) 0 (no)

(Q) # check: z-score of O=C1CCC(=O)N1c1nc2n(n1)C(c1ccccc1)C=C(c1ccc(Br)cc1)N2 (stereo unspecified) is greater than or equal to 0.1
(A) 1 (yes)

(Q) Is it the case that "O=C(COc1ccc(Cl)cc1)Nc1ccccc1CO" has z-score reaching or exceeding 0.1?
(A) 1 (yes)

(Q) Has O=C1NC(=O)C(c2cn(-c3ccccc3)nc2-c2ccc(F)cc2)N1 (stereo unspecified) a recorded z-score greater than or equal to 0.1?
(A) 1 (yes)

(Q) Hello, I need to know if "CC(C)CSc1nc(N2CCOCC2)c2c(c1C#N)CC(C)(C)SC2" has measured z-score not below 0.1. Thanks!
(A) 0 (no)

(Q) Dear colleague, could you confirm whether "NC(=O)CSc1nnc2n(-c3ccccc3)c(=O)c3c4c(sc3n12)CCCCC4" has z-score at or above 0.1?
(A) 0 (no)

The values you see were collected from PubChem BioAssay.
